Target: human CXCR3A (Homo sapiens (Human), UniProt P49682)
Sequence (P49682 whole entry): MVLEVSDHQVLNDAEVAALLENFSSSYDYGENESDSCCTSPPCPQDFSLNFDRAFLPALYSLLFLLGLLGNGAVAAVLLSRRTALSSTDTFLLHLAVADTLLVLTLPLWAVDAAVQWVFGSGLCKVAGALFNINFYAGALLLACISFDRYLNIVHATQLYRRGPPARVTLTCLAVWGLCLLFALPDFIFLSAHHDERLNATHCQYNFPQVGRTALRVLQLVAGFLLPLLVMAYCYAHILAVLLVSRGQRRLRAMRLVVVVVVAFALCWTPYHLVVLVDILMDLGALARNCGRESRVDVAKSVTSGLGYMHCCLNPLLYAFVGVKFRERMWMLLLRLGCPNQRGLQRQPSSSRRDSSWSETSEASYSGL
Assay: FLIPR assay (inhibition of CXCL10-induced calcium signal)
Conditions: engineered CHO-K1 cells expressing human CXCR3A coupled to Galpha(16); Fluo-4-AM; CXCL10 agonist 20 nM; mean values where determined several times
Field: IC50. Provide a value for each of the compounds that follow.
One number for each entry, in nM.

Guide cases for IC50, answers given:
Field IC50 (human CXCR3A (Homo sapiens (Human), UniProt P49682)), entry C[C@@H]1CN(c2cccc3c2CN(C(=O)c2ccc(Cl)c(Cl)c2)CC3)CCN1C(=O)Cn1cnc2cccnc21 : 17

Reported IC50 (human CXCR3A (Homo sapiens (Human), UniProt P49682)) for entry C[C@@H]1CN(c2cccc3c2CN(C(=O)C2CCCCC2)CC3)CCN1C(=O)Cn1cnc2cccnc21 is 55.5

Value (IC50, human CXCR3A (Homo sapiens (Human), UniProt P49682)) for record COc1ncc(N2CCc3c(C(F)(F)F)ccc(N4CCN(C(=O)Cn5nc(C)nc5C)[C@H](C)C4)c3C2)cn1 = 17.1

Kindly note: human CXCR3A (Homo sapiens (Human), UniProt P49682), CCOc1ncc(N2CCc3c(F)ccc(N4CCN(C(=O)Cn5nc(C)cc5C)[C@H](C)C4)c3C2)cn1 , IC50 value reported: 5.7

Noted IC50 for Cc1nc(C)n(CC(=O)N2CCN(c3ccc(C(F)(F)F)c4c3CN(c3nc5ccc(F)cc5s3)CC4)C[C@H]2C)n1 , tested on human CXCR3A (Homo sapiens (Human), UniProt P49682): 15.8

Quick one: give me IC50 for each item below, same order please.
1. C[C@@H]1CN(c2cccc3c2CN(c2nccs2)CC3)CCN1C(=O)Cn1cnc2cccnc21
2. Cc1cnc(N2CCc3cccc(N4CCN(C(=O)Cn5cnc6cccnc65)[C@H](C)C4)c3C2)nc1

*A*
1: 12.2; 2: 32.6
